Could you please report measured molar heat capacity at constant pressure for the items listed next?
Assay: molar heat capacity at constant pressure
Details: 368.15 K; 101.33 kPa; Liquid; Large sample (1 g) DSC
± gives the expanded uncertainty stated by the source.

Enquiry: For the compound shown here, CCCCCCCCCCCBr , give the reported molar heat capacity at constant pressure.
Return: 408.1 ± 17 J/K/mol

Enquiry: For the compound shown here, CCCCCCCCCCCCCCBr [1-tetradecyl bromide] , give the reported molar heat capacity at constant pressure.
Return: 496.17 ± 21 J/K/mol

Enquiry: For the compound shown here, CCCCCCBr , give the reported molar heat capacity at constant pressure.
Return: 242.34 ± 10 J/K/mol
